Test: Solubility of Compound 1 in solvents
Assay type: physicochemical
Conditions: hexylene glycol, organic solvent or mixture
property-label: solubility
Quote the value and follow it with the unit of measurement.

Query: Report solubility, nothing else, for this compound: `Cc1cccc(-n2ncc(C)c2-c2cc3cnccc3s2)n1`
Response: 50.2 mg/mL

---

Experiment: Solubility of Compound 1 in solvents
Format: physicochemical
Settings: organic solvent or mixture; Propylene Glycol (PG)
Description: Tables 2 and 3 provide the solubility of the exemplary ALK-5 kinase inhibitor Compound 1 in various solvents.
property-label: solubility (mg/mL)
Reply with just the number (in mg/mL).

Query: Report solubility, nothing else, for this compound: `Cc1cccc(-n2ncc(C)c2-c2cc3cnccc3s2)n1`
Response: 23.7
